System: Candida albicans SNY425 biofilm
measurementDescription: biofilm OD600 relative to DMSO control (fraction of DMSO control); higher = more biofilm (less inhibition)
conditionInfo: 40 µM; assay detail: sustained inhibition, 384-well, compound during adherence and 24 h growth
Counter-ions that a name gives are not always drawn.
Cut-off 0.9 on biofilm OD600, inclusive. At or above means criterion met; below means criterion not met.

INSERT INTO assay_data (compound, classname) VALUES
  ('CCOC(=O)[C@H](CCc1ccccc1)N[C@@H](C)C(=O)N1Cc2ccccc2C[C@H]1C(=O)O [quinapril hydrochloride]', 'criterion met'),
  ('COC(=O)C1=C(C)NC(C)=C(C(=O)OCC(C)C)C1c1ccccc1[N+](=O)[O-] (configuration not stated) [nisoldipine]', 'criterion not met'),
  ('CCC(=O)Oc1ccc2c(c1)CC[C@@H]1[C@@H]2CC[C@]2(C)[C@@H](OC(=O)CC)CC[C@@H]12 [estradiol dipropionate]', 'criterion met'),
  ('COCCCOc1ccnc(C[S+]([O-])c2nc3ccccc3[nH]2)c1C (configuration not stated) [rabeprazole sodium]', 'criterion met'),
  ('NC(=O)C(c1ccccc1)(c1ccccc1)[C@@H]1CCN(CCc2ccc3c(c2)CCO3)C1 [darifenacin hydrobromide]', 'criterion met'),
  ('O=c1[nH]c(=O)n([C@H]2C[C@H](O)[C@@H](CO)O2)cc1F [floxuridine]', 'criterion met');

---

Below, each entry is listed alongside its reported biofilm OD600.
Tested on: Candida albicans SNY425 biofilm
measurementDescription: biofilm OD600 relative to DMSO control (fraction of DMSO control); higher = more biofilm (less inhibition)
conditionInfo: 200 µM; assay detail: sustained inhibition (MBIC series), 384-well, compound during adherence and 24 h growth
Where a name gives a salt, the structure may show the parent alone.
measuredEndpoint: biofilm OD600

INSERT INTO measurements (compound, systemname, measuredendpoint, observed) VALUES
  ('O=C([O-])C(O)[C@H](O)[C@@H](O)[C@H](O)[C@H](O)CO.O=C([O-])C(O)[C@H](O)[C@@H](O)[C@H](O)[C@H](O)CO.[Ca+2] (some centres not stated) [calcium gluceptate]', 'Candida albicans SNY425 biofilm', 'biofilm OD600', 0.823),
  ('Oc1c(Cl)cc(Cl)c2cccnc12', 'Candida albicans SNY425 biofilm', 'biofilm OD600', 0.268),
  ('CCCCCCCCCCCCCCCCOP(=O)([O-])OCC[N+](C)(C)C', 'Candida albicans SNY425 biofilm', 'biofilm OD600', 0.259),
  ('CCCCCCOC(=O)NC(=N)c1ccc(NCc2nc3cc(C(=O)N(CCC(=O)OCC)c4ccccn4)ccc3n2C)cc1 [dabigatran etexilate mesylate]', 'Candida albicans SNY425 biofilm', 'biofilm OD600', 0.628),
  ('CC(C)N1CCN(c2ccc(OCC3COC(Cn4cncn4)(c4ccc(Cl)cc4Cl)O3)cc2)CC1 (configuration not stated)', 'Candida albicans SNY425 biofilm', 'biofilm OD600', 0.403),
  ('COCCOC(=O)C1=C(C)NC(C)=C(C(=O)OC(C)C)C1c1cccc([N+](=O)[O-])c1 (configuration not stated)', 'Candida albicans SNY425 biofilm', 'biofilm OD600', 1.27),
  ('Cc1c(OCC(F)(F)F)ccnc1C[S@@+]([O-])c1nc2ccccc2[nH]1', 'Candida albicans SNY425 biofilm', 'biofilm OD600', 0.625);
